system: ryr1b homozygous mutant zebrafish; experiment: Secondary screen of individual chemicals in ryr1b zebrafish (vitality: survival and touch-evoked escape behavior); assay type: in vivo, zebrafish (Danio rerio); design: key: vitality score, theoretical range 0–60; DMSO controls expected ~50; details: 2.0 μg/mL from 1 dpf, scored at 5 dpf; average of two replicates of 20 larvae from heterozygous ryr1b matings; score=(#Dead*0)+(#ryr1b*1)+(#Moderate*2)+(#Wild-type*3), max 60, expected 50 in DMSO controls
Where a name gives a salt, the structure may show the parent alone.
Attribute: Vitality Score
Write the value as a bare number.

Look over these answered cases.
## Input // Vitality Score lookup, key: COCCOC(=O)C1=C(C)NC(C)=C(C(=O)OC(C)C)C1c1cccc([N+](=O)[O-])c1 (centres unmarked) [Nimodipine]
## Output 52.0

## Input // Vitality Score lookup, key: O=C(N/N=C/c1ccc([N+](=O)[O-])o1)c1ccc(O)cc1 [Nifuroxazide]
## Output 52.0

## Input // Vitality Score lookup, key: Clc1ccc(COC(Cn2ccnc2)c2ccc(Cl)cc2Cl)c(Cl)c1 (centres unmarked) [Miconazole]
## Output 54.0

## Input // Vitality Score lookup, key: CC(=O)N(CC(O)CO)c1c(I)c(C(=O)NCC(O)CO)c(I)c(C(=O)NCC(O)CO)c1I (centres unmarked) [Iohexol]
## Output 53.5

## Input // Vitality Score lookup, key: CN(C)C/C=C(/c1ccc(Br)cc1)c1cccnc1 [Zimelidine dihydrochloride monohydrate]
## Output 55.0

Further cases:
## Input // Vitality Score lookup, key: CCCCOc1cc(C(=O)OCCN(CC)CC)ccc1N [Benoxinate hydrochloride]
## Output 52.5

## Input // Vitality Score lookup, key: Clc1ccccc1CN1CCc2sccc2C1 [Ticlopidine hydrochloride]
## Output 54.0

## Input // Vitality Score lookup, key: Cc1ccccc1N1C(=O)c2cc(S(N)(=O)=O)c(Cl)cc2NC1C (centres unmarked) [Metolazone]
## Output 55.5
